FYI, the data here is from paper PMC10331583.

tested on: WI‐26 VA4 cells; assay: CellTiter‐Glo assay (cytotoxicity); details: Homo sapiens, WI26VA4, read-out: CellTiter-Glo % of control, average, 1000 nM; average
endpointName: activity at 1 µM (%)
Give just the number in %; leave the unit off.

Here are 3 molecules together with their reported answers.
O[C@H]1CCCN[C@@H]1CCCn1cnc2c(Cl)c(Cl)ccc21 | 102
O=C(CC1NCCCC1O)Cn1cnc2cc(Br)c(Cl)cc2c1=O (centres unmarked) [HF, Halofuginone, reference compound] | 23.7
Cc1c(Cl)ccc2c1ncn2CC(=O)C[C@H]1NCCC[C@@H]1O | 63.5

// field: activity at 1 µM; key: "Cc1c(Br)cnc2c1ncn2CC(=O)C[C@H]1NCCC[C@@H]1O" ; value = 20.8

The measured activity at 1 µM associated with "O=C(C[C@H]1NCCC[C@@H]1O)Cn1cnc2ccc(-c3cccc(F)c3)cc21" reads 76.7
